System: HOP-92 NSCLC
Assay: NCI tumour cell line growth inhibition, 48 h
Measured GI50 values are reported for all entries that follow.

// worked examples, GI50 included
>>> df
                                   molecule  reported_measurement
0  COc1cccc(F)c1C(=O)c1cnc(NC2CCN(S(C)(=O)=O)CC2)nc1N               1050 nM
1           O=C(Nc1ccc(Br)cc1F)c1cc(F)ccc1O                192 nM
2  CC(=O)OC1COC(Oc2c(C)c3c4c(c2O)[C@@H](C)CC[C@@H]4[C@@H](C)C[C@H]3C=C(C)C)C(O)C1OC(C)=O (stereo not given in full)              16300 nM

Request: Please report the recorded GI50 for CCN(CC)CCC(CNc1ccnc2cc(Cl)ccc12)c1ccc(Cl)cc1 (stereo not given) .
Result: 995 nM

Request: Entry `NC(=O)/C=C/C(=O)c1c(Cl)cccc1Cl` please
Result: 574 nM

====

System: SR leukemia
Assay: NCI tumour cell line growth inhibition, 48 h
Overview of reported TGI across a group of compounds:

// worked examples, TGI included
>>> print(df.to_string())
                                   compound  target_entity  reported_measurement
0  COC(=O)C1=C(C(=O)OC)N(c2ccc(OC)cc2[N+](=O)[O-])C(c2ccc(C)cc2)=CC1c1ccc(OC)cc1OC (stereo not drawn)    SR leukemia               27.7 µM
1  CCCCOC(=O)CNC(=O)OC/C=C/C#CC#C/C=C/COC(=O)NCC(=O)OCCCC    SR leukemia               > 10 µM

The record that follows has no TGI shown yet.
Request: Tell me the measured TGI of `Cc1c(C)c2c(c(N)c1C#N)C(=O)N(NC(=O)c1ccccc1)C2=O` , please.
Result: > 100 µM

====

# TGI per entry
Tested on: IGROV1 ovarian
Assay: NCI tumour cell line growth inhibition, 48 h
Could you give me the number in µM? Just the number is fine.

molecule	reported_measurement
CCN1CCN(C(=O)[C@@]2(C)CC[C@]3(C)CC[C@]4(C)C(=CC(=O)[C@@H]5[C@@]6(C)CC[C@H](OC7C[C@@H](O)[C@@H](O)C(C)O7)C(C)(C)[C@@H]6CC[C@]54C)[C@@H]3C2)CC1 (some centres undefined)	6.39

// below: TGI requested for another molecule
Request: Which measured TGI belongs to `Cc1ccc(S(=O)(=O)c2[nH]cc(/C(=C\C3CCCCC3)[N+](=O)[O-])c2C2CCCCC2)cc1` , tested on IGROV1 ovarian?
Result: 1.13

====

Test system: U251 CNS
Permitted responses: active, inactive

>>> df
                                   molecule  target_entity     group
0  Cc1ccc(SC2c3ccc(C)cc3Oc3nc(N)c(C#N)c(N)c32)cc1 (centres undefined)       U251 CNS  inactive
1  O=C(Nc1ccc(Nc2ccncc2)cc1)c1ccc([N+](=O)[O-])cc1       U251 CNS  inactive
2  C/C=C(\C)C(=O)O[C@H]1C=CC(=O)O[C@H]1CCC(=O)[C@H](C)O       U251 CNS  inactive
3  CCCCOC(=O)CNC(=O)OC/C=C/C#CC#C/C=C/COC(=O)NCC(=O)OCCCC       U251 CNS  inactive
4           Oc1ccc(Nc2ncnc3c2sc2ncccc23)cc1       U251 CNS    active

Request: // return assay outcome for `COc1cc(Nc2ncccc2C(=O)NCc2cn(Cc3cccc(Oc4ccccc4)c3)nn2)cc(OC)c1`
Result: inactive

Request: Follow-up entry: `CCCCC#CC1=C(Br)C(=O)OC1`
Result: inactive

Request: Next up: `CC1(C)N=C(N)N=C(N)N1c1ccc(CCCCc2ccc(Cl)cc2S(=O)(=O)F)c(Cl)c1`
Result: active

Request: Entry to check: `Cn1c(I)c(C#CCO[Si](C)(C)C(C)(C)C)c(=O)[nH]c1=O`
Result: inactive

Request: Try `COC(=O)COc1ccccc1/C=C1\N=C(c2ccccc2)N(c2cc(C(F)(F)F)ccc2Cl)C1=O` next.
Result: inactive
